Test: unchanged pamiparib in urine and renal clearance (LC‐MS/MS)
Assay type: in vivo, human
Details: human, urine and plasma, oral, 60 mg; calculated as Ae/AUC; read-out: renal clearance, geometric mean (converted)
Protocol: Total radioactivity was analyzed at Covance Laboratories (Harrogate, North Yorkshire, UK), and metabolite profiling was conducted at Covance Laboratories (Madison, Wisconsin). Determination of pamiparib concentrations in plasma and total radioactivity in plasma and whole blood was performed predose and 0.25, 0.5, 1, 1.5, 2, 2.5, 3, 6, 12, 24, 48, 72, 96, 120, and 144 hours postdose. […]
measurement-kind: CL renal (mL/min)
Quick note: give the figure in mL/min, leave out the unit.

[Q] // lookup CL renal for C[C@]12CCCN1CC1=NNC(=O)c3cc(F)cc4[nH]c2c1c34
[A] 0.623
